test: In vivo pharmacokinetic study, plasma and brain levels by LC-MS; set-up: species or system mice; conditions: male, C57BL/6, mouse, in vivo, ip, 1 mg/kg
Reported log10 of CL/F values for the following molecules.
Heads up, the numbers here are log10 of CL/F in mL/min/kg units.

Input Smiles	Property Label	Measured Number
OCCOCCN1CCN(C2=Nc3ccccc3Sc3ccc(Cl)cc32)CC1	log10 of CL/F	2.37
O=C(O)COCCN1CCN(C2=Nc3ccccc3Oc3ccc(C(F)(F)F)cc32)CC1	log10 of CL/F	1.29

Task: Which log10 of CL/F value belongs to CN1CCN(C2=Nc3ccccc3Oc3ccc(C(F)(F)F)cc32)CC1 ?
Result: 2.30

Task: Which log10 of CL/F value belongs to CN1CCCN(C2=Nc3ccccc3Oc3ccc(C(F)(F)F)cc32)CC1 ?
Result: 2.46

Task: Which log10 of CL/F value belongs to OCCN1CCN(C2=Nc3ccccc3Oc3ccc(Cl)cc32)CC1 ?
Result: 2.52

Task: Which log10 of CL/F value belongs to O=C(O)COCCN1CCN(C2=Nc3ccccc3Oc3ccc(Cl)cc32)CC1 ?
Result: 1.55

Task: Which log10 of CL/F value belongs to CN1CCN(C2=Nc3cc(F)ccc3Oc3ccc(C(F)(F)F)cc32)CC1 ?
Result: 2.14

Task: Which log10 of CL/F value belongs to O=C(O)COCCN1CCCN(C2=Nc3ccccc3Oc3ccc(C(F)(F)F)cc32)CC1 ?
Result: 2.13

---

test: In vivo pharmacokinetic study, plasma and brain levels by LC-MS; set-up: species or system mice; conditions: male, C57BL/6, mouse, in vivo, ip, 1 mg/kg
Property Label: half-life (h)
Field format: number, assumed h, no unit text.

Example results:
Input Smiles	Endpoint Unit	half-life
O=C(O)COCCN1CCCN(C2=Nc3ccccc3Oc3ccc(C(F)(F)F)cc32)CC1	h	1.8
CN1CCCN(C2=Nc3ccccc3Oc3ccc(C(F)(F)F)cc32)CC1	h	2

Task: Which half-life value belongs to CN1CCN(C2=Nc3ccccc3Oc3ccc(C(F)(F)F)cc32)CC1 ?
Result: 3.4

---

target: human Slack (Homo sapiens); construct: host or cells: HEK293; assay: FluxOR potassium ion channel assay in HEK-Slack cells; assay type: cell-based; conditions: Na+ free buffer with 2 mM Ca2+, 2 mM Mg2+, 0.03% DMSO; first preliminary experiments; read-out: EC50 value in the first preliminary experiments
Property Label: EC50 (µM)
Field format: number, assumed µM, no unit text.

Task: Which EC50 value belongs to CN1CCN(C2=Nc3ccccc3Oc3ccc(Cl)cc32)CC1 [Loxapine, reference compound] ?
Result: 23.4

---

test: In vivo pharmacokinetic study, plasma and brain levels by LC-MS; parameters: species or system mice; conditions: male, C57BL/6, mouse, in vivo, ip; mice, 1 mg/kg i.p.; read-out: brain/plasma ratio
Property Label: Kp

Task: Which Kp value belongs to O=C(O)COCCN1CCN(C2=Nc3ccccc3Oc3ccc(Cl)cc32)CC1 ?
Result: ≤ 0.3

---

Molecular target: human Slack (Homo sapiens)
Construct: host or cells: HEK293
Sequence (Q5JUK3 1-1230): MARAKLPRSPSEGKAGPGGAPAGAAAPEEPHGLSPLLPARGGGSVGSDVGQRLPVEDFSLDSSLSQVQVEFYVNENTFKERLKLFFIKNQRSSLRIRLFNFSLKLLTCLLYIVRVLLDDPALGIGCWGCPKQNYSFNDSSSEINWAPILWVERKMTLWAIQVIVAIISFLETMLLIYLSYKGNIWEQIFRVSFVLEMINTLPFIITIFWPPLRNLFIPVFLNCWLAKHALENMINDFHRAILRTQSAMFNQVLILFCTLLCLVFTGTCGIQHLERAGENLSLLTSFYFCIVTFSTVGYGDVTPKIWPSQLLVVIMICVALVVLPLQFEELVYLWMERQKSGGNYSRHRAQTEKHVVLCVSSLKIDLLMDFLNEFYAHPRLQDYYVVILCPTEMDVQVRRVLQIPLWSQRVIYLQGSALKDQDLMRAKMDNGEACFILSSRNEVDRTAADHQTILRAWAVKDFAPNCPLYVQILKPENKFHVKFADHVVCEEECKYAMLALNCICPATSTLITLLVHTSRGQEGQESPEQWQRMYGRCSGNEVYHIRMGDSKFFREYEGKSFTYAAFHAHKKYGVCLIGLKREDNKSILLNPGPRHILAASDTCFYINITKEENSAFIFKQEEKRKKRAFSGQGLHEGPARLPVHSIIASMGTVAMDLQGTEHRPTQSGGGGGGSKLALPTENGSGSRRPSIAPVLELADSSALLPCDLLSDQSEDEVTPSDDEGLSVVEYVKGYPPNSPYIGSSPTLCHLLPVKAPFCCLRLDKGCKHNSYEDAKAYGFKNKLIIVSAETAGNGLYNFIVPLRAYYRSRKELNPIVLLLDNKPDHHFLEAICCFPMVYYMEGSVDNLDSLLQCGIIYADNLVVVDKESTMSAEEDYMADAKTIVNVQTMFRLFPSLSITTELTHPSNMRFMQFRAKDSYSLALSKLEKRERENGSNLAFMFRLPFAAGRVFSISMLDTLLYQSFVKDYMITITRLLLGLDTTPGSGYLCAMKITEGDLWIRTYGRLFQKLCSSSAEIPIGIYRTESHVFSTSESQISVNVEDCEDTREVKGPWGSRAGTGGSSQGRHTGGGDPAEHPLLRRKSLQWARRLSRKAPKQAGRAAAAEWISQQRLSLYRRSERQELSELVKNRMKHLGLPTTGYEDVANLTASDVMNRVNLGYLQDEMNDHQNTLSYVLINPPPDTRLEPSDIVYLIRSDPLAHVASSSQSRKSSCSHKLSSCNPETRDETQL
Experiment: FluxOR potassium ion channel assay in HEK-Slack cells
Type: cell-based
Settings: read-out: FluxOR assay EMAX (% relative to Loxapine); Na+ free buffer with 2 mM Ca2+, 2 mM Mg2+, 0.03% DMSO; mean with 95% confidence interval
Reported Emax values for the following compounds.
Field format: number, assumed %, no unit text.

Input Smiles	Measured Number
O=C(O)COCCN1CCN(C2=Nc3ccccc3Oc3ccc(Cl)cc32)CC1	96.2
OCCN1CCN(C2=Nc3ccccc3Oc3ccc(Cl)cc32)CC1	223
O=C(O)COCCN1CCCN(C2=Nc3ccccc3Oc3ccc(C(F)(F)F)cc32)CC1	186
O=c1nc(CN2CCCN(C3=Nc4ccccc4Oc4ccc(C(F)(F)F)cc43)CC2)[nH][nH]1	129
O=C(O)COCCN1CCN(C2=Nc3ccccc3Oc3ccc(C(F)(F)F)cc32)CC1	177

Task: Which Emax value belongs to O=c1nc(CN2CCN(C3=Nc4cc(F)ccc4Oc4ccc(C(F)(F)F)cc43)CC2)[nH][nH]1 ?
Result: 127

Task: Which Emax value belongs to CN1CCN(C2=Nc3cc(F)ccc3Oc3ccc(C(F)(F)F)cc32)CC1 ?
Result: 199

---

assay: In vivo pharmacokinetic study, plasma and brain levels by LC-MS; design: species or system mice; conditions: male, C57BL/6, mouse, ip; mice, 1 mg/kg i.p., cassette dosing, plasma; read-out: CL/f (converted)
Property Label: CL/F (mL/min/kg)
Field format: number, assumed mL/min/kg, no unit text.

Task: Which CL/F value belongs to CN1CCN(C2=Nc3ccccc3Oc3ccc(Cl)cc32)CC1 [Loxapine, reference compound] ?
Result: 144

---

assay: In vivo pharmacokinetic study, plasma and brain levels by LC-MS; design: species or system mice; settings: male, C57BL/6, mouse, in vivo, ip, 1 mg/kg
Property Label: % AUCextra (%)
Field format: number, assumed %, no unit text.

Example results:
Input Smiles	% AUCextra [%]
CN1CCN(C2=Nc3cc(F)ccc3Oc3ccc(C(F)(F)F)cc32)CC1	11.4
CN1CCN(C2=Nc3ccccc3Oc3ccc(C(F)(F)F)cc32)CC1	19.3
O=C(O)COCCN1CCN(C2=Nc3ccccc3Oc3ccc(Cl)cc32)CC1	10.1
OCCOCCN1CCN(C2=Nc3ccccc3Sc3ccc(Cl)cc32)CC1	0.9
OCCN1CCN(C2=Nc3ccccc3Oc3ccc(Cl)cc32)CC1	1.3

Task: Which % AUCextra value belongs to O=C(O)COCCN1CCN(C2=Nc3ccccc3Oc3ccc(C(F)(F)F)cc32)CC1 ?
Result: 20.7

Task: Which % AUCextra value belongs to CN1CCCN(C2=Nc3ccccc3Oc3ccc(C(F)(F)F)cc32)CC1 ?
Result: 5.0

Task: Which % AUCextra value belongs to O=C(O)COCCN1CCCN(C2=Nc3ccccc3Oc3ccc(C(F)(F)F)cc32)CC1 ?
Result: 0.6

---

assay: In vivo pharmacokinetic study, plasma and brain levels by LC-MS; set-up: species or system mice; conditions: male, C57BL/6, mouse, in vivo, ip, 1 mg/kg
Property Label: Vd/F (L/kg)
Field format: number, assumed L/kg, no unit text.

Input Smiles	Vd/F [L/kg]
CN1CCN(C2=Nc3cc(F)ccc3Oc3ccc(C(F)(F)F)cc32)CC1	27.7
OCCN1CCN(C2=Nc3ccccc3Oc3ccc(Cl)cc32)CC1	33.1
O=C(O)COCCN1CCN(C2=Nc3ccccc3Oc3ccc(C(F)(F)F)cc32)CC1	6.58
O=C(O)COCCN1CCCN(C2=Nc3ccccc3Oc3ccc(C(F)(F)F)cc32)CC1	21.1
CN1CCCN(C2=Nc3ccccc3Oc3ccc(C(F)(F)F)cc32)CC1	50.1

Task: Which Vd/F value belongs to CN1CCN(C2=Nc3ccccc3Oc3ccc(C(F)(F)F)cc32)CC1 ?
Result: 58.5

Task: Which Vd/F value belongs to O=C(O)COCCN1CCN(C2=Nc3ccccc3Oc3ccc(Cl)cc32)CC1 ?
Result: 7.56

Task: Which Vd/F value belongs to OCCOCCN1CCN(C2=Nc3ccccc3Sc3ccc(Cl)cc32)CC1 ?
Result: 31.4
